Attribution: patent US11752139B2

# Test method notes: clinical
# Recorded conditions: human, in vivo, po, 240 mg/m2, Tmax
Endpoint name: Tmax (h)
Answers are plain numbers, in h.

GET /values?readout=Tmax&item= CCc1c2c(nc3ccc(OC(=O)N4CCC(N5CCCCC5)CC4)cc13)-c1cc3c(c(=O)n1C2)COC(=O)[C@]3(O)CC [oral irinotecan, reference compound] 3

* * *

# Test method notes: clinical
# Recorded conditions: human, in vivo, 240 mg/m2, Observed Mean AUCinf
Endpoint name: AUC0-inf (µg·h/mL)
One number for each entry, in µg·h/mL.

GET /values?readout=AUC0-inf&item= CCc1c2c(nc3ccc(OC(=O)N4CCC(N5CCCCC5)CC4)cc13)-c1cc3c(c(=O)n1C2)COC(=O)[C@]3(O)CC [oral irinotecan, reference compound] 8.15
